We begin with a simple list: items and their reported koff.
Target: T1, VEGF-D (recombinant human; source not given) (human, UniProt O43915 89-205, limits assumed)
T1 construct: also used here as target of IC50 values averaged over Source 1 and Source 2; also called vascular endothelial growth factor-D
T1 sequence: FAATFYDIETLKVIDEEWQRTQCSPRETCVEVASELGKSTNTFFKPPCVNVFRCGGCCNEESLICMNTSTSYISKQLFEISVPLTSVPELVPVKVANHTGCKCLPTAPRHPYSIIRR
Assay: SPR (BIAcore) off-rate ranking of scFv clones

{"binder": "scFv clone W25 (scFv) scFv: QVQLVQSGAEVKQPGASVKVSCKASGYTFTGYNMYWVRQAPGQGLGWMGYIDPYNGDTTYNQKFKGRVTMTTDTSTSTAYMELRSLRSDDTAVYYCARTSYYGGMDYWGRGTLVTVASGGGASGGGGSGGGGSDIVMTQTPLSSPVTLGQPASISCRSSQSLVHSNGNTYLHWLQQRPGQPPRLLIYKVSNRFSGVPDRFSGSGAGTDFTLKISRVEAEDVGVYYCSQSTHVPRTFGQGTKLEIKR", "unit symbol": "s⁻¹", "koff": 0.0046}
{"binder": "scFv clone G11 (scFv) scFv: QVQLVQSGAEVKQPGASVKVSCKASGYTFTGYNMYWVRQAPGQGLEWMGYIDPYNGDTTYNQKFKGRVTMTTDTSTSTAYMELRSLRSDDTAVYYCARTSYYGGMDYWGRGTLVTVASGGGASGGGGSGGGGSDIVMTQTPLSSPVTLGQPASISCRSSQSLVHSNGNTYLHWLQQRPGQPPRLLIYKVSNRFSGVPGRFSGSGAGTDFTLKISRVEAEDVGVYYCSQSTHVPRTFGQGTKLEIKR", "unit symbol": "s⁻¹", "koff": 0.00464}
{"binder": "scFv clone P88 (scFv) scFv: QVQLVQSGAEVKQPGASVKVSCKASGYTFTGYNMYWVRQAPGQGLEWMGYIDPYNGDTTYNQKFKGRVTMTTDTSTSTAYMELRSLRSDDTAVYYCARTSYYGGMDYWGRGTLVTVASGGGASGGGGSGGGGSDIVMIQTPLSSPVTLGQPASISCRSSQSLVHSNGNTYLHWLQQRPGQPPRLLIYKVSNRFSGVPDRFSGSGAGTDFTLKISRVEAEDVGVYYCSQSTHVPRTFGQGTKLEIKR", "unit symbol": "s⁻¹", "koff": 0.00785}
{"binder": "scFv clone H44 (scFv, G131R lies in the scFv linker) scFv: QVQLVQSGAEVKQPGASVKVSCKASGYTFTGYNMYWVRQAPGQGLGWMGYIDPYNGDTTYNQKFKGRVTMTTDTSTSTAYMELRSLRSDDTAVYYCARTSYYGGMDYWGRGTLVTVASGGGASGGGGSGGRGSDIVMTQTPLSSPVTLGQPASISCRSSQSLVHSNGNTYLHWLQQRPGQPPRLLIYKVSNRFSGVPDRFSGSGAGTDFTLKISRVEAEDMGVYYCSQSTHVPRTFGQGTKLEIKR", "unit symbol": "s⁻¹", "koff": 0.00657}
{"binder": "scFv clone I71 (scFv) scFv: QVQLVQSGAEVKQPGASVRVSCKASGYTFTGYNMYWVRQAPGQGLEWMGYIDPYNGDTTYNQKFKGRVTMTTDTSTSTAYMELRSLRSDDTAVYYCARTSYYGGMDYWGRGTLVTVASGGGASGGGGSGGGGSDIVMTQTPLSSPVTLGQPASISCRSSQSLVHSNGNTYLHWLQQRPGQPPRLLIYKVSNRFSGVPDRFSGSGAGTDFTLKISRVEAEDVGVYYCSQSTHVPRTFGQGTKLEIKR", "unit symbol": "s⁻¹", "koff": 0.00661}
{"binder": "scFv clone CX03 (scFv) scFv: QVQLVQSGAEVKQPGASVTVSCKASGYTFTGYNMYWVRQAPGQGLEWMGYIDPYNGDTTYNQKFKGRVTMTTDTSTSTAYMELRSLRSDDTAVYYCARTSYYGGMDYWGRGTLVTVASGGGASGGGGSGGGGSDIVMTQTPLSSPVTLGQPASISCRSSQSLVHSNGNTYLHWLQQRPGQPPRLLIYKVSNRFSGVPGRFSGSGAGTDFTLKISRVEAEDVGVYYCSQSTHVPRTFGQGTKLEIKR", "unit symbol": "s⁻¹", "koff": 0.00739}
{"binder": "scFv clone CJ17 (scFv) scFv: QVQLVQSGAEVKQPGASVKVSCEASGYTFTGYNMYWVRQAPGQGLEWMGYIDPYNGDTTYNQKFKGRVTMTTDTSTSTAYMKLRSLRSDDTAVYYCARTSYYGGMDYWGRGTLVTVASGGGASGGGGSGGGGSDIVMTQTPLSSPVTLGQPASISCRSSQSLVHSNGNTYLHWLQQRPGQPPRLLIYKVSNRFSGVPDRFSGSGAGTDFTLKISRVEAEDVGVYYCSQSTHVPRTFGQGTKLEIKR", "unit symbol": "s⁻¹", "koff": 0.00291}
{"binder": "scFv clone DB29 (scFv) scFv: QVQLVQSGAKVKQPGASVKASCKASGYTFTGYNMYWVRQAPGQGLEWMGYIDPYNGDTTYNQKFKGRVTMTTDTSTSTAYMELRSLRSDDTAVYYCARTSYYGGMDYWGRGTLVTVASGGGASGGGGSGGGGSDIVMTQTPLSGPVTLGQPASISCRSSQSLVHSNGNTYLHWLQQRPGQPPRLLIYKVSNRFSGVPDRFSGSGAGTDFTLKISRVEAEDVGVYYCSQSTHVPRTFGQGTKLEIKR", "unit symbol": "s⁻¹", "koff": 0.00575}
{"binder": "scFv clone DD76 (scFv) scFv: QVQLVQSGAKVKQPGASVKASCKASGYTFTGYNMYWVRQAPGQGLEWMGYIDPYNGDTTYNQKFKGRVTMTTDTNTSTAYMELRSLRSDDTAVYYCARTSYYGGMDYWGRGTLVTVASGGGASGGGGSGGGGSDIVMTQTPLSSPVTLGQPASISCRSSQSLVHSNGNTYLHWLQQRPGQPPRLLIYKVSNRFSGVPDRFSGSGAGTDFTLKISRVEAEDVGVYYCSQSTHVPRTFGQGTKLEIKR", "unit symbol": "s⁻¹", "koff": 0.00637}
{"binder": "scFv clone DA74 (scFv) scFv: QVQLAQSGAKVKQPGASVKASCKASGYTFTGYNMYWVRQAPGQGLEWMGYIDPYNGDTTYNQKFKGRVTMTTDTSTSTAYMELRSLRSDDTAVYYCARTSYYGGMDYWGRGTLVTVASGGGASGGGGSGGGGSDIVMTQTPLSSPVTLGQPASISCRSSQSLVHSNGNTYLHWLQQRPGQPPRLLIYKVSNRSSGVPDRFSGSGAGTDFTLKISRVEAEDVGVYYCSQSTHVPRTFGQGTKLEIKR", "unit symbol": "s⁻¹", "koff": 0.00424}
